Provide the reported apparent KD of K4 kissing-loop reporter of each item.
- Tested on: K4 kissing-loop RNA reporter;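 also: bound reporter read as fluorescence of individual clusters on recovered sequencing chips by microscopy, with normalized cluster intensities fitted with a binding model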
- Assay summary: apparent KD of K4 kissing-loop reporter; higher = weaker reporter binding
- Applied conditions: Eterna round: R107; input ligand: theophylline 20 uM

Reported apparent KD of K4 kissing-loop reporter, sequence AAACAUCACUGGGAGUGAUGUUCUCAGUGACGAGGACCGGUACGGCCGCCACUCGCGAGAGAUAUAGUCUAGUAAUGACUGCAUU [Excl Tryptophan A V9] : ____ 322 nM

Fill in the blank: the reported apparent KD of K4 kissing-loop reporter of UUAGAGAUCUCAGGAUAUCAGUGAUGUUGAGAUUCAGAUCUGAGAUAGAAUUCUAUCUCAGAUCAAUGAGAAGGGAGAUCUCAUU [AK4.4 Exc FMN B] is ____. 699 nM

For the sequence AAGAGCCUCAAGAGGCAGUAUCUGCCUCAACGAGGACCGGUACGGCCGCCACUCGAAUAAUAGAGUGAUGUUCUAAGAGGCUCAA [AK8 SS Tryptophan A] , what apparent KD of K4 kissing-loop reporter is on record? 548 nM

Param item = UGAUACCAGACGGCCGCCACUACACCAGUCAAAGACUGGAUGUGAUGUCUGACCAGUGAUGUUGGUAGGACCGGGUCUGGUAUCU [TrypBX 6 #Palindromic #SwitchBubble #StaticStem] ; retrieve measured apparent KD of K4 kissing-loop reporter. 450 nM

Would you mind telling me what apparent KD of K4 kissing-loop reporter value was observed for UCGCAAAAGUCGGCCGCCACUCCGGGCCCUAUAAAUGGGCGCAGUGAUGUUGCGGCUAGGCCUCUGAGGACCGGGACUUUGAAGA [Esesbior] ? 102 nM

Return reported apparent KD of K4 kissing-loop reporter; argument: UGGGCCGCCUGAGGAUAUAGAGACGAGUGAUGUUCGUGGAUCAGAGCCAGUGAUGUUGGGUUAUUUCUAGAAGGCGGGCGAACUU [Exclusion FMN B GF10] 118 nM

====

- Tested on: MS2 coat protein
- Assay summary: apparent KD of MS2 coat protein; designed switch direction (-1 OFF switch, 1 ON switch): -1; higher = weaker reporter binding
- Applied conditions: input ligand: FMN 200 uM
I'd be grateful if you could share measured apparent KD of MS2 coat protein for these entries.
Respond numerically; units are nM and should not be typed.

Which apparent KD of MS2 coat protein value belongs to ACAUGUAAUGCAGGAUAUUUUACACAUGAGGAUCACCCAUGUGACCAGAGGAAUUGCUAUGAGUAGAAGAAGGGUAUGUACAUG [Ex NG2 #56] (Eterna round: R96, puzzle: Exclusion NG 2) ? 78.8

I have this sequence here, CACGUGAUUGGGCUCAUUAACAUGAGGAUCACCCAUGUGUGUGUUUUAGGAUGCCCACAAGCUUUUUCGCCGUCUAG [Eternabot (L1) Solution 3] (Eterna round: R97, puzzle: Sensor, turn-off variant 1) , and I need its recorded apparent KD of MS2 coat protein. 51

Requested field: apparent KD of MS2 coat protein. Item: GUUUGCAGACGGAGAUCCUACAUGAGGAUCACCCAUGUCUCACUAGCUUUUUGCUCGUCUUAUCCUCCUCUGUUCUC [Elimod 27 - Jieux - Sensor, turn-off variant 1] (Eterna round: R97, puzzle: Sensor, turn-off variant 1) 260

Could you share which apparent KD of MS2 coat protein value was measured for AAUGAGCAAGUCAGGAUAUUAAGCCACAGCUGGCGUAAGAAGGGACAUGAGGAUCACCCAUGUUCAUCCAAUGG [Eternabot (Original) Solution 15] (Eterna round: R97, puzzle: Brourd's mod of Exclusion 4) ? 24.5
